Assay type: in vivo, human
Details: human, plasma, oral, 400 mg
assay-metric: Cmax (ng/mL)
Express your answer in ng/mL, writing the number without its unit.

Fill blank: measured Cmax of the compound Cc1cccc(C)c1N(CC(=O)Nc1ccc(-c2ncon2)cc1)C(=O)C1CCS(=O)(=O)CC1 is ____. 1450
